Tested on: equine CYP3A97
Details: read-out: Km (or Km1), 5-OH flunixin formation

COMPOUND	Km / µM
Cc1c(Nc2ncc(O)cc2C(=O)O)cccc1C(F)(F)F [5-OH flunixin, 5-hydroxy-flunixin]	4.07

---

Tested on: equine CYP3A95
Conditions: read-out: Km (or Km1), 5-OH flunixin formation
QUANTITY KIND: Km (µM)

MOLECULE	NUMERIC READOUT
Cc1c(Nc2ncc(O)cc2C(=O)O)cccc1C(F)(F)F [5-OH flunixin, 5-hydroxy-flunixin]	928

---

System: equine CYP3A94
Details: read-out: Km (or Km1), 5-OH flunixin formation

MOLECULE	Km, µM
Cc1c(Nc2ncc(O)cc2C(=O)O)cccc1C(F)(F)F [5-OH flunixin, 5-hydroxy-flunixin]	828

---

Test: Flunixin meglumine metabolism to 5-OH flunixin in equine liver microsomes
Format: in vitro ADME
Details: substrate inhibition model, 5-OH flunixin formation, horse 1

COMPOUND	Ki (µM)
Cc1c(Nc2ncc(O)cc2C(=O)O)cccc1C(F)(F)F [5-OH flunixin, 5-hydroxy-flunixin]	710

---

Test system: equine CYP1A1
Details: read-out: Km (or Km1); 5-OH flunixin formation, CYP1A1, high-affinity phase
QUANTITY KIND: Km (µM)

MOLECULE	TESTED SYSTEM	QUANTITY KIND	NUMERIC READOUT
Cc1c(Nc2ncc(O)cc2C(=O)O)cccc1C(F)(F)F [5-OH flunixin, 5-hydroxy-flunixin]	equine CYP1A1	Km	495

---

Test: Phenylbutazone metabolism in equine liver microsomes
Assay type: in vitro ADME
Conditions: metabolite formation from PBZ, horse 2

MOLECULE	Km [µM]
CC(O)CCC1C(=O)N(c2ccccc2)N(c2ccccc2)C1=O (stereo not shown) [Gamma-hydroxy phenylbutazone, gamma-hydroxy phenylbutazone]	79.3

---

Assay: Phenylbutazone metabolism in equine liver microsomes
Assay type: in vitro ADME
Conditions: metabolite formation from PBZ, horse 1

COMPOUND	Km
CC(O)CCC1C(=O)N(c2ccccc2)N(c2ccccc2)C1=O (stereo not shown) [Gamma-hydroxy phenylbutazone, gamma-hydroxy phenylbutazone]	29.2 µM
